All figures here come from ChEMBL document CHEMBL4680167.

The entries below come with measured CC50 at 48 h values attached.
- Assay overview: Cytotoxicity against dog MDCK cells assessed as reduction in cell viability incubated for 48 hrs by MTT assay
- Format: cell-based, Canis lupus familiaris

These recorded examples may help you get a feel for the data.
Compound	CC50 at 48 h
O=C(O[C@@H]1Cc2c(O)cc(O)cc2O[C@@H]1c1cc(O)c(O)c(O)c1)c1cc(O)c(O)c(O)c1 [EPIGALOCATECHIN GALLATE]	> 200 µM
O=C(c1ccc(O)c(O)c1)N1CCc2cc(O)c(O)cc2C1	133 µM
O=C(NCCc1ccc(O)c(O)c1)c1cccc(O)c1	> 200 µM
Oc1ccc(CCNC(=S)Cc2ccc(O)c(O)c2)cc1O	> 200 µM

QUERY: Give recorded CC50 at 48 h. `O=C(NCCc1ccc(O)c(O)c1)c1ccc(O)c(O)c1`
RESULT: 154 µM

QUERY: Report CC50 at 48 h, nothing else, for this compound: `O=C(Cc1ccc(O)c(O)c1)N1CCc2cc(O)c(O)cc2C1`
RESULT: 151 µM

###

- Tested on: Influenza A virus
- Assay overview: Antiviral activity against Influenza A virus (A/WSN/1933(H1N1)) infected in dog MDCK cells assessed as reduction in virus-induced cytopathic effect incubated for 48 hrs by MTT assay
- Type: functional, organism-based
Quick list: EC50 per entry.
Give the value in µM but do not write µM after it.

Known EC50 results, listed for orientation:
Molecule	Target desc	Unit string	EC50
O=C(NCCc1ccc(O)c(O)c1)c1cccc(O)c1	Influenza A virus	µM	13.1
O=C(Cc1ccc(O)c(O)c1)NCCc1ccc(O)c(O)c1	Influenza A virus	µM	2.46
O=C(CCc1ccc(O)c(O)c1)NCCc1ccc(O)c(O)c1	Influenza A virus	µM	4.94
O=C(NCCc1ccc(O)c(O)c1)c1ccc(O)cc1	Influenza A virus	µM	12.7
O=C(O[C@@H]1Cc2c(O)cc(O)cc2O[C@@H]1c1cc(O)c(O)c(O)c1)c1cc(O)c(O)c(O)c1 [EPIGALOCATECHIN GALLATE]	Influenza A virus	µM	28.9
O=C(Cc1ccc(O)c(O)c1)N1CCc2cc(O)c(O)cc2C1	Influenza A virus	µM	2.58

Pending molecule:
QUERY: Report measured EC50; entry is CCC(CC)[C@H](NC(C)=O)[C@@H]1[C@H](O)[C@@H](C(=O)O)C[C@H]1NC(=N)N [PERAMIVIR ANHYDROUS]
RESULT: 5.26

###

// values below are reported selectivity ratio
- Assay overview: Selectivity index, ratio of CC50 for dog MDCK cells to EC50 for Influenza A virus (A/WSN/1933(H1N1)) infected in dog MDCK cells
- Type: toxicity, cell-based
- Experimental context: read-out: Ratio CC50/EC50

Molecule	selectivity ratio
CCC(CC)[C@H](NC(C)=O)[C@@H]1[C@H](O)[C@@H](C(=O)O)C[C@H]1NC(=N)N [PERAMIVIR ANHYDROUS]	> 38

QUERY: Give recorded selectivity ratio. `O=C(c1ccc(O)c(O)c1)N1CCc2cc(O)c(O)cc2C1`
RESULT: 43

QUERY: Let me know recorded selectivity ratio for `Oc1ccc(CCNC(=S)Cc2ccc(O)c(O)c2)cc1O` , thanks.
RESULT: > 45.7

QUERY: Report selectivity ratio for `O=C(NCCc1ccc(O)c(O)c1)c1cccc(O)c1`
RESULT: > 15.3

QUERY: State its selectivity ratio for this molecule: `O=C(Cc1ccc(O)c(O)c1)N1CCc2cc(O)c(O)cc2C1`
RESULT: 58.5

QUERY: Input `O=C(NCCc1ccc(O)c(O)c1)c1ccc(O)cc1` , output reported selectivity ratio.
RESULT: > 25.2

QUERY: Hello, please tell me recorded selectivity ratio for this one: `O=C(CCc1ccc(O)c(O)c1)NCCc1ccc(O)c(O)c1`
RESULT: > 64.8

QUERY: Answer with the recorded selectivity ratio for the molecule listed here: O=C(O[C@@H]1Cc2c(O)cc(O)cc2O[C@@H]1c1cc(O)c(O)c(O)c1)c1cc(O)c(O)c(O)c1 [EPIGALOCATECHIN GALLATE]
RESULT: > 6.9

QUERY: # return recorded selectivity ratio for entry `O=C(NCCc1ccc(O)c(O)c1)c1ccc(O)c(O)c1`
RESULT: 15

QUERY: In one line, give reported selectivity ratio of the entry `O=C(CCc1ccc(O)c(O)c1)N1CCc2cc(O)c(O)cc2C1` .
RESULT: 10.6

QUERY: Look up selectivity ratio of `O=C(Cc1ccc(O)c(O)c1)NCCc1ccc(O)c(O)c1` and report it.
RESULT: > 81.3

###

- Test system: Influenza A virus
- Assay overview: Antiviral activity against Influenza A virus (A/WSN/1933(H1N1)) infected in dog MDCK cells assessed as reduction in virus-induced cytopathic effect incubated for 48 hrs by MTT assay
- Assay type: functional, organism-based
Measured pEC50 of individual entries
Reminder that pEC50 is minus the log10 of a molar concentration.

QUERY: Give recorded pEC50. `O=C(c1ccc(O)c(O)c1)N1CCc2cc(O)c(O)cc2C1`
RESULT: 5.51

QUERY: Give the reported pEC50 for this compound. `O=C(NCCc1ccc(O)c(O)c1)c1ccc(O)c(O)c1`
RESULT: 4.99

QUERY: Report pEC50 for `Oc1ccc(CCNC(=S)Cc2ccc(O)c(O)c2)cc1O`
RESULT: 5.15

QUERY: Look up and report measured pEC50 for this entry: `O=C(CCc1ccc(O)c(O)c1)N1CCc2cc(O)c(O)cc2C1`
RESULT: 4.73

###

- Assay overview: Cytotoxicity against dog MDCK cells assessed as reduction in cell viability incubated for 48 hrs by MTT assay
- Type: cell-based, Canis lupus familiaris
Value kind: CC50 at 48 h

QUERY: Given the compound `O=C(CCc1ccc(O)c(O)c1)NCCc1ccc(O)c(O)c1` , write its reported CC50 at 48 h.
RESULT: > 200 µM

QUERY: Using the record for `O=C(NCCc1ccc(O)c(O)c1)c1ccc(O)cc1` , state its measured CC50 at 48 h.
RESULT: > 200 µM

QUERY: Specify measured CC50 at 48 h for `O=C(CCc1ccc(O)c(O)c1)N1CCc2cc(O)c(O)cc2C1` .
RESULT: 197 µM

QUERY: Look up CC50 at 48 h of `O=C(Cc1ccc(O)c(O)c1)NCCc1ccc(O)c(O)c1` and report it.
RESULT: > 200 µM

QUERY: Identify the reported CC50 at 48 h for the following entry. CCC(CC)[C@H](NC(C)=O)[C@@H]1[C@H](O)[C@@H](C(=O)O)C[C@H]1NC(=N)N [PERAMIVIR ANHYDROUS]
RESULT: > 200 µM

###

Reported pEC50 values for a set of compounds
- Tested on: Influenza A virus
- Assay overview: Antiviral activity against Influenza A virus (A/WSN/1933(H1N1)) infected in dog MDCK cells assessed as reduction in virus-induced cytopathic effect incubated for 48 hrs by MTT assay
- Assay type: functional, organism-based
pEC50: −log10 of the molar value.

Line notation	Target desc	Value kind	Test result
O=C(Cc1ccc(O)c(O)c1)OCCc1ccc(O)c(O)c1	Influenza A virus	pEC50	< 4.52
O=C(NCCc1ccc(O)c(O)c1)c1cccc(O)c1O	Influenza A virus	pEC50	< 4.52

# ---- query compound ----
QUERY: Report pEC50 for `O=C(NCCc1ccc(O)c(O)c1)c1cc(O)c(O)c(O)c1`
RESULT: < 4.52
